Recorded measurements of pIC50, one per entry
TEST_TARGET: SSTR5 (Homo sapiens (Human))
Sequence (P35346 whole entry): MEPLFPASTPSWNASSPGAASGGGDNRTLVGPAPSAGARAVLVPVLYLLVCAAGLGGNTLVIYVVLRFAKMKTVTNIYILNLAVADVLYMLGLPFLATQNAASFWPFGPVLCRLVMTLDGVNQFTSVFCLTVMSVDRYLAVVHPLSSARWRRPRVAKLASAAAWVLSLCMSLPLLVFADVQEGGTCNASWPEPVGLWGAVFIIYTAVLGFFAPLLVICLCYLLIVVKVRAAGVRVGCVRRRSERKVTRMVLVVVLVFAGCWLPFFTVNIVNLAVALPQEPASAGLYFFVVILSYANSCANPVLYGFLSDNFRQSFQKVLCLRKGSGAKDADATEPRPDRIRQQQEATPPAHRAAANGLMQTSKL
PROCEDURE_SUMMARY: SSTR5 binding assay
CONDITION_NOTES: CHO-K1 membranes expressing cloned human SSTR5
Structures can show the parent of a compound that is named as a salt.
pIC50 field: float, defined as -log10 of concentration (mol/L).

Below, 5 molecules whose answers are already recorded.
{"MOLECULE": "O=C(O)c1ccc(N2CC3(CCN(Cc4cc5c(cc4-c4cc(F)c(F)cc4F)CCC5)CC3)OC2=O)cc1 [Example 4-19, TFA salt]", "TEST_TARGET": "SSTR5 (Homo sapiens (Human))", "NUMERIC_RESULT": 9.61}
{"MOLECULE": "O=C(O)c1ccc(N2CC3(CCN(Cc4cn(-c5ccc(F)cc5)nc4-c4ccc(F)cc4)CC3)OC2=O)cc1 [Example 1-20, TFA salt]", "TEST_TARGET": "SSTR5 (Homo sapiens (Human))", "NUMERIC_RESULT": 8.27}
{"MOLECULE": "CCOc1cc(CN2CCC3(CC2)CN(c2cccc(C(=O)O)c2)C(=O)O3)cc(OCC)c1-c1ccc(F)cc1 [Example 3-14, TFA salt]", "TEST_TARGET": "SSTR5 (Homo sapiens (Human))", "NUMERIC_RESULT": 8.04}
{"MOLECULE": "O=C(O)c1ccc(N2CC3(CCN(Cc4cnn(-c5ccccc5)c4-c4cc(F)c(F)cc4F)CC3)OC2=O)cc1 [Example 2-7, TFA salt]", "TEST_TARGET": "SSTR5 (Homo sapiens (Human))", "NUMERIC_RESULT": 8.74}
{"MOLECULE": "Cc1ccc(-n2cc(CN3CCC4(CC3)CN(c3ccc(C(=O)O)cc3)C(=O)O4)c(-c3ccc(F)c(F)c3F)n2)c(C)c1 [Example 1-6, TFA salt]", "TEST_TARGET": "SSTR5 (Homo sapiens (Human))", "NUMERIC_RESULT": 8.81}

-- ask Answer with the recorded pIC50 of CCOc1cc(CN2CCC3(CC2)CN(c2ccc(C(=O)O)c(OC)c2)C(=O)O3)c(-c2ccc(F)c(F)c2F)cc1C [Example 4-18, TFA salt] only.
-- reply 9.64

-- ask Answer with the recorded pIC50 of CCOc1cc(CN2CCC3(CC2)CN(c2ccc(-c4nn[nH]n4)cc2OC)C(=O)O3)cc(OCC)c1-c1ccc(F)cc1 [Example 3-7, TFA salt] only.
-- reply 8.15

-- ask Answer with the recorded pIC50 of CC(C)(C)n1cc(CN2CCC3(CC2)CN(c2ccc(C(=O)O)cc2)C(=O)O3)c(-c2cc(F)c(Cl)cc2F)n1 [Example 1-31, TFA salt] only.
-- reply 8.68

-- ask Answer with the recorded pIC50 of O=C(O)c1ccc(N2CC3(CCN(Cc4cn(C5CCCCC5)nc4-c4ccc(F)c(F)c4F)CC3)OC2=O)cc1 [Example 1-19, TFA salt] only.
-- reply 8.88

----------
Recorded measurements of log10(IC50), one per entry
TEST_TARGET: SSTR5 (Homo sapiens (Human))
PROCEDURE_SUMMARY: SSTR5 binding assay
CONDITION_NOTES: CHO-K1 membranes expressing cloned human SSTR5
Structures can show the parent of a compound that is named as a salt.
Kindly note that the scale is log10 and the underlying IC50 is in nM.

-- ask Answer with the recorded log10(IC50) of CCOc1cc(CN2CCC3(CC2)CN(c2ccc(C(=O)O)c(OC)c2)C(=O)O3)cc(OCC)c1-c1ccc(F)cc1 [Example 3-20, TFA salt] only.
-- reply -0.89

-- ask Answer with the recorded log10(IC50) of CCOc1ccc(-c2ccc(F)c(F)c2F)c(CN2CCC3(CC2)CN(c2ccc(C(=O)O)cc2)C(=O)O3)c1 [Example 4-5, TFA salt] only.
-- reply -0.25

-- ask Answer with the recorded log10(IC50) of CC(C)n1nc(CN2CCC3(CC2)CN(c2ccc(C(=O)O)cc2)C(=O)O3)c2cc(OCc3ccccc3)ccc21 [Example 6-14, TFA salt] only.
-- reply -0.59

-- ask Answer with the recorded log10(IC50) of Cc1ccc(-c2cc(C)c(Cl)cc2CN2CCC3(CC2)CN(c2ccc(C(=O)O)cc2)C(=O)O3)cn1 [Example 4-23, TFA salt] only.
-- reply 0.36

-- ask Answer with the recorded log10(IC50) of CC1(C)CCOc2c(F)cc(CN3CCC4(CC3)CN(c3ccc(C(=O)O)cc3)C(=O)O4)cc21 [Example 5-14, TFA salt] only.
-- reply 0.56

-- ask Answer with the recorded log10(IC50) of CC(C)(C)c1nn(-c2ccc(F)cc2)cc1CN1CCC2(CC1)CN(c1ccc(C(=O)O)cc1)C(=O)O2 [Example 1-35, TFA salt] only.
-- reply 1.56

Every entry's value here was drawn from patent US8742110B2.
